Reported IC50 by item:
- test_system: Human recombinant DHX9 protein (Homo sapiens (Human))
- Sequence (Q08211 whole entry): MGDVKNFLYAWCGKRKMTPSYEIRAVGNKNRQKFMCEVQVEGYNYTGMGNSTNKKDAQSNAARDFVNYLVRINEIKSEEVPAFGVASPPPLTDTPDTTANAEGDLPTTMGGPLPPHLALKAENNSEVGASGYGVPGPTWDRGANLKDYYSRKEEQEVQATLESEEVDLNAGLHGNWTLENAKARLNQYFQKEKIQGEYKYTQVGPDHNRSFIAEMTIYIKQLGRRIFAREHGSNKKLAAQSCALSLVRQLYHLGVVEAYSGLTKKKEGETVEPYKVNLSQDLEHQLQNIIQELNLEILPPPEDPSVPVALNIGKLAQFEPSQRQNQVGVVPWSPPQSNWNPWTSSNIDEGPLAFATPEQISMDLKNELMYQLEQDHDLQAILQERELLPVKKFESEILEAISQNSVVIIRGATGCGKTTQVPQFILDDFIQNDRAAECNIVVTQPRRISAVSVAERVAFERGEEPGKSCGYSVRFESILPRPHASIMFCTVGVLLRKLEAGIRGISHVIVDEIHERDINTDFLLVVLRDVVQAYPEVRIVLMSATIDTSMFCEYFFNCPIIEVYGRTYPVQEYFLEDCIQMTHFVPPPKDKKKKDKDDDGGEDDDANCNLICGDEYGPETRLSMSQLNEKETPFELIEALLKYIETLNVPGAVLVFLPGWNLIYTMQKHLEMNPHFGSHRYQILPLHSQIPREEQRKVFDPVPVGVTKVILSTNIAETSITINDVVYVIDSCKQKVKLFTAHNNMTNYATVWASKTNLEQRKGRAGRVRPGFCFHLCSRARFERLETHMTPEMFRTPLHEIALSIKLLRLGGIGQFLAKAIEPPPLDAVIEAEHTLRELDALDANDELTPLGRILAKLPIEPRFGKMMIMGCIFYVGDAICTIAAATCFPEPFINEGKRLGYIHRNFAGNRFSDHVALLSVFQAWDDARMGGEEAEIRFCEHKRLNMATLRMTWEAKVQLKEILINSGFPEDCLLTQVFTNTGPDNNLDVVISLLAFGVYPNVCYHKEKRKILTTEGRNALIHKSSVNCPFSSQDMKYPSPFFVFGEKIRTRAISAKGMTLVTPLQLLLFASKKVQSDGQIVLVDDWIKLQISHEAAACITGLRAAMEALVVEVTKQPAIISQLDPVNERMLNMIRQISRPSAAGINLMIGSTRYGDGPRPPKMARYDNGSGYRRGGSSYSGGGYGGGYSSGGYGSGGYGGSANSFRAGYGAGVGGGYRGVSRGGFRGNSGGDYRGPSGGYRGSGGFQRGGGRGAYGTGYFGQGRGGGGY
- test_summary: DHX9 ATPase assay (ADP-Glo)
- settings: read-out: DHX9 Biochemical Inflection Point
Report the value in µM with no unit label.

Take a look at these entries with their results.
Cn1cc(C(=O)Nc2cc(Cl)cc(NS(C)(=O)=O)c2)cc1-c1ncc(N2CCC(F)(F)C2)cn1 [Example 526] | 0.0174
CN1CC[C@H](Oc2cnc(-c3cc(C(=O)Nc4cc(Cl)cc(NS(C)(=O)=O)c4)cn3CC(F)(F)F)nc2)C1 [Example 642] | 0.0198
CCc1cncc(COc2cccnc2-c2cc(C(=O)Nc3cc(Cl)cc(NS(C)(=O)=O)c3)cn2C)c1 [Example 730] | 0.0117
CS(=O)(=O)Nc1cc(Cl)cc(NC(=O)c2c[nH]c(-c3ncc(F)cc3F)c2)c1 [Example 560] | 0.051
Cc1sc(C(=O)Nc2cc(Cl)cc(NS(C)(=O)=O)c2)cc1-c1ccc(N2CC3(C2)CC(F)(F)C3)cn1 [Example 499] | 0.0357

Lookup: Return reported IC50; argument: Cc1cccc(O)c1-c1csc(C(=O)Nc2cc(Br)cc(NS(C)(=O)=O)c2)c1 [Example 19]
Found: 0.115

Lookup: How about Cn1cc(C(=O)Nc2cc(Cl)cc(NS(C)(=O)=O)c2)cc1-c1ncc(F)cc1C#N [Example 546] ?
Found: 0.0131

Lookup: Try this molecule too: CS(=O)(=O)Nc1cc(Cl)cc(NC(=O)c2cnn(C3CC4(CNC4)C3)c2)c1 [Example 146]
Found: 0.0304

Lookup: Would you mind doing CS(=O)(=O)Nc1cc(Cl)cc(NC(=O)c2cc(CO)n(-c3ncccc3OCc3cncc(F)c3)c2)c1 [Example 723] as well?
Found: 0.0016

Lookup: Then this molecule: CC(=O)NC1CC2(C1)CC(n1cc(C(=O)Nc3cc(Cl)cc(NS(C)(=O)=O)c3)cn1)C2 (stereo not shown) [Example 310]
Found: 0.102

Lookup: Same for Cc1sc(C(=O)Nc2cc(Cl)cc(NS(C)(=O)=O)c2)nc1-c1ccc(F)cn1 [Example 716]
Found: 0.128

Lookup: Moving on to CS(=O)(=O)Nc1cc(Cl)cc(NC(=O)c2cnn(-c3ncccc3OCc3cc(F)cc(F)c3)c2)c1 [Example 256]
Found: 0.403

Lookup: Also check CS(=O)(=O)Nc1cc(Cl)cc(NC(=O)c2cc3cc(F)ccc3s2)c1 [Example 295]
Found: 0.307

Lookup: Field entry: Cc1sc(C(=O)Nc2cc(Cl)cc(NS(C)(=O)=O)c2)cc1-c1ncc(C#N)cn1 [Example 585]
Found: 0.0229

Lookup: Do the same for CC(C)Oc1cnc(-c2csc(C(=O)Nc3cc(Cl)cc(NS(C)(=O)=O)c3)c2)nc1 [Example 457] please
Found: 0.0202

Lookup: Now consider COc1cc(F)cnc1-c1cc(C(=O)Nc2cc(Cl)cc(NS(C)(=O)=O)c2)sc1C [Example 351] and answer again.
Found: 0.0155

====

- test_system: Human recombinant DHX9 protein (Homo sapiens (Human))
- test_summary: DHX9 ATPase assay (ADP-Glo)
- Type: biochemical
Think of 70% as a floor: if DHX9 Biochemical Max Inhibition stands on it or above, it is MET; beneath it, NOT MET.

CS(=O)(=O)Nc1cc(Cl)cc(NC(=O)c2cnn(-c3ncccc3OCc3cccc(F)c3)c2)c1 [Example 65] | MET
CCn1cc(C(=O)Nc2cc(Cl)cc(NS(C)(=O)=O)c2)cc1-c1ccccc1 [Example 79] | NOT MET
CS(=O)(=O)Nc1cc(Br)cc(NC(=O)c2cnn(-c3ncccc3N)c2)c1 [Example 162] | NOT MET
CS(=O)(=O)Nc1cc(Br)cc(NC(=O)c2cnn(-c3cnccn3)c2)c1 [Example 40] | NOT MET

Lookup: DHX9 Biochemical Max Inhibition >= 70% for CS(=O)(=O)Nc1cc(Cl)cc(NC(=O)c2cnn(-c3ccc(N4CC5CCC(C4)O5)cn3)c2)c1 [Example 191] ?
Found: NOT MET

Lookup: Also need CCS(=O)(=O)Nc1cc(Cl)cc(NC(=O)c2cc(-c3ncccc3C)cs2)c1 [Example 224] , thanks.
Found: NOT MET

Lookup: Now the compound CCS(=O)(=O)Nc1cc(Cl)cc(NC(=O)c2cc(-c3ncccn3)n(C)c2)c1 [Example 173]
Found: NOT MET

Lookup: Same question for CCc1cn2cc(C(=O)Nc3cc(Cl)cc(NS(C)(=O)=O)c3)ccc2n1 [Example 132] please.
Found: NOT MET

Lookup: Entry to check: COc1cc(F)cnc1-c1cc(C(=O)Nc2cc(Cl)cc(NS(C)(=O)=O)c2)sc1C [Example 351]
Found: MET

Lookup: CS(=O)(=O)Nc1cc(Cl)cc(NC(=O)c2cc3cc(Cl)ccc3s2)c1 [Example 298] ?
Found: NOT MET

Lookup: Next compound up: CCS(=O)(=O)Nc1cc(F)cc(NC(=O)c2cc(-c3ccccn3)cs2)c1 [Example 113]
Found: NOT MET

Lookup: Now try CS(=O)(=O)Nc1cc(Cl)cc(NC(=O)c2cc3c(F)ccc(F)c3s2)c1 [Example 325] .
Found: NOT MET

Lookup: CS(=O)(=O)Nc1cc(Cl)cc(NC(=O)c2cnn(-c3ncccc3OCc3ccc(F)cc3)c2)c1 [Example 69] , same question.
Found: NOT MET
